# assay.target: EPAC1 (Homo sapiens)
# Sequence (O95398 1-923): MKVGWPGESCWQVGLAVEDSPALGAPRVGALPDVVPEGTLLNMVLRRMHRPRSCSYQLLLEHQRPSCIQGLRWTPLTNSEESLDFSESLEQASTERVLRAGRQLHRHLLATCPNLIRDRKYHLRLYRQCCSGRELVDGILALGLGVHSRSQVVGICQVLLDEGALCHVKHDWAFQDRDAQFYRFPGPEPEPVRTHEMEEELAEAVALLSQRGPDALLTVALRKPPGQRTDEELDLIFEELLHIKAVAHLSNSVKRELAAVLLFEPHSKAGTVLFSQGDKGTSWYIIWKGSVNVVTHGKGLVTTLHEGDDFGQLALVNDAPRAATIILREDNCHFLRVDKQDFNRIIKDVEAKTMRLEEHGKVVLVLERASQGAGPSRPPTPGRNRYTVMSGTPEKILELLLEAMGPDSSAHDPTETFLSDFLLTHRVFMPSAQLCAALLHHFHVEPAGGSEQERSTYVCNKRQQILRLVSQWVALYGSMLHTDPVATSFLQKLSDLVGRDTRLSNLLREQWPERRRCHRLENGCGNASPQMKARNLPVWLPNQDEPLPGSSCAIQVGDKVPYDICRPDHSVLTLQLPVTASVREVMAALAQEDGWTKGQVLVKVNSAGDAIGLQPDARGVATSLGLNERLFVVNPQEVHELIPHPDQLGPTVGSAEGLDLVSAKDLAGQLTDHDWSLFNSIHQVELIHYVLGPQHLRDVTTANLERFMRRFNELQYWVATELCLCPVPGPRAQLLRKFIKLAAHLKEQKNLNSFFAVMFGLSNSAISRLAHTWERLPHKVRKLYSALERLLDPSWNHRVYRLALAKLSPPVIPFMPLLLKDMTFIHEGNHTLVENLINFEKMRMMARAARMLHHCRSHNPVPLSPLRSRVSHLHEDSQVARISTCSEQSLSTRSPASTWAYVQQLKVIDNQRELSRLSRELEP
# experiment.summary: biochemical
# experimental.conditions: Rap1b-bGDP EPAC1 IC50, purified recombinant full-length EPAC1; 20 μM cAMP; mean ± SD of at least three independent experiments
measurement.type: pIC50
Interpret pIC50 as the negative base-10 log of the concentration measured in mol/L.

Field request: pIC50 | item: `N#C/C(=N\Nc1cccc(Cl)c1)C(=O)c1cc(-c2ccco2)on1`
5.44
